Source: PubChem BioAssay AID1963871

Tested on: KRAS-mutant PDC multicell tumor spheroid viability
Test Description: Anticancer human tumor 521955-158-R2-J5-PDC patient-derived pancreatic carcinoma cell line growth inhibition [KRAS2]
Measurement Parameters: curve of first compound; second compound 0.1 µM
Measured IC50, listed per entry for reference.

Molecule: Cn1ncnc1[C@H]1c2n[nH]c(=O)c3cc(F)cc(c23)N[C@@H]1c1ccc(F)cc1 + CC1OCC2(CCN(c3cnc(Sc4ccnc(N)c4Cl)c(N)n3)CC2)C1N
Target System: KRAS-mutant PDC multicell tumor spheroid viability
IC50: > 100 nM
--
Molecule: CC1(C)CCC(CN2CCN(c3ccc(C(=O)NS(=O)(=O)c4ccc(NCC5CCOCC5)c([N+](=O)[O-])c4)c(Oc4cnc5[nH]ccc5c4)c3)CC2)=C(c2ccc(Cl)cc2)C1 + COc1cc2nc(C)nc(NC(C)c3cc(N)cc(C(F)(F)F)c3)c2cc1OC1CCOC1
Target System: KRAS-mutant PDC multicell tumor spheroid viability
IC50: 6340 nM
--
Molecule: Cn1nccc1Nc1nccc(-c2cc3c(s2)C(C)(C)N(CCN2CCOCC2)C3=O)n1 + C=CC(=O)N1CCN(c2nc(OCC3CCCN3C)nc3c2CCN(c2cccc4cccc(C)c24)C3)CC1CC#N
Target System: KRAS-mutant PDC multicell tumor spheroid viability
IC50: 546 nM

---

Test system: KRAS-mutant PDC multicell tumor spheroid viability
Test Description: Anticancer human tumor 521955-158-R2-J5-PDC cell line growth inhibition [KRAS2]; active = viability on the fitted dose curve at most 10% of control; inactive = the rest;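 note: viability read after seven days of drug exposure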
Measurement Parameters: second compound 3.16 µM; first compound 0.01 µM
Classes used: yes = active, no = inactive

Compound: Cn1ncnc1[C@H]1c2n[nH]c(=O)c3cc(F)cc(c23)N[C@@H]1c1ccc(F)cc1 + CNCc1ccccc1-c1csc(C(C)Nc2nc(C)nc3cc(OC)c(OC)cc23)c1
Target System: KRAS-mutant PDC multicell tumor spheroid viability
Label: yes

Compound: CN(C)C/C=C/C(=O)Nc1cc2c(Nc3ccc(F)c(Cl)c3)ncnc2cc1O[C@H]1CCOC1 + C=CC(=O)N1CCN(c2nc(OCC3CCCN3C)nc3c2CCN(c2cccc4cccc(C)c24)C3)CC1CC#N
Target System: KRAS-mutant PDC multicell tumor spheroid viability
Label: yes

Compound: CN(C)C/C=C/C(=O)Nc1cc2c(Nc3ccc(F)c(Cl)c3)ncnc2cc1O[C@H]1CCOC1 + COc1cc2nc(C)nc(NC(C)c3cc(N)cc(C(F)(F)F)c3)c2cc1OC1CCOC1
Target System: KRAS-mutant PDC multicell tumor spheroid viability
Label: no

Compound: CC(=O)Nc1cccc(-n2c(=O)n(C3CC3)c(=O)c3c(Nc4ccc(I)cc4F)n(C)c(=O)c(C)c32)c1 + C=CC(=O)N1CCN(c2nc(OCC3CCCN3C)nc3c2CCN(c2cccc4cccc(C)c24)C3)CC1CC#N
Target System: KRAS-mutant PDC multicell tumor spheroid viability
Label: yes

Compound: CC(=O)Nc1cccc(-n2c(=O)n(C3CC3)c(=O)c3c(Nc4ccc(I)cc4F)n(C)c(=O)c(C)c32)c1 + COc1cc2nc(C)nc(NC(C)c3cc(N)cc(C(F)(F)F)c3)c2cc1OC1CCOC1
Target System: KRAS-mutant PDC multicell tumor spheroid viability
Label: no

Compound: CC1COCCN1c1cc(-c2ccnn2C)c2ccnc(-c3ccn[nH]3)c2n1 (stereo not given) + COc1cc2nc(C)nc(NC(C)c3cc(N)cc(C(F)(F)F)c3)c2cc1OC1CCOC1
Target System: KRAS-mutant PDC multicell tumor spheroid viability
Label: no

Compound: CC(=O)Nc1cccc(-n2c(=O)n(C3CC3)c(=O)c3c(Nc4ccc(I)cc4F)n(C)c(=O)c(C)c32)c1 + CC1OCC2(CCN(c3cnc(Sc4ccnc(N)c4Cl)c(N)n3)CC2)C1N
Target System: KRAS-mutant PDC multicell tumor spheroid viability
Label: no

Compound: CC(=O)OC12COC1CC(O)C1(C)C(=O)C(O)C3=C(C)C(OC(=O)C(O)C(NC(=O)OC(C)(C)C)c4ccccc4)CC(O)(C(OC(=O)c4ccccc4)C21)C3(C)C (stereo not given) + C=CC(=O)N1CCN(c2nc(OCC3CCCN3C)nc3c2CCN(c2cccc4cccc(C)c24)C3)CC1CC#N
Target System: KRAS-mutant PDC multicell tumor spheroid viability
Label: no

Compound: Cn1ncnc1[C@H]1c2n[nH]c(=O)c3cc(F)cc(c23)N[C@@H]1c1ccc(F)cc1 + COc1cc2nc(C)nc(NC(C)c3cc(N)cc(C(F)(F)F)c3)c2cc1OC1CCOC1
Target System: KRAS-mutant PDC multicell tumor spheroid viability
Label: no

Compound: CCN1CCN(Cc2ccc(Nc3ncc(F)c(-c4cc(F)c5nc(C)n(C(C)C)c5c4)n3)nc2)CC1 + CNCc1ccccc1-c1csc(C(C)Nc2nc(C)nc3cc(OC)c(OC)cc23)c1
Target System: KRAS-mutant PDC multicell tumor spheroid viability
Label: yes
